Test system: Influenza A virus
Experiment: Antiviral activity against Influenza A virus A/sw/Texas/2009(H1N1) virus by firefly luciferase reporter gene assay
Assay type: functional, organism-based
quantity_measured: pEC50
Scale explanation: pEC50 corresponds to minus log10 of a concentration expressed in moles per litre.

> print(dat)
                                   compound  quantity.measured  reported.value
1  COc1ccc(-n2c(SC(C)C(=O)Nc3ccc(C)cc3Cl)nc3ccccc32)cc1 (stereo not drawn)              pEC50            7.40
2  CCOC(=O)Cn1c(-c2nonc2NC(=O)c2ccccc2F)nc2ccccc21              pEC50            7.00

Please examine the following record next.
q: So what does the record say about pEC50 for C#CCn1c([S+](=O)([O-])Cc2ccc(F)cc2)nc(-c2ccccc2)c1-c1ccccc1 ?
a: 6.70

----------
Reported values of log10 of t1/2 for individual entries
System: Liver
Experiment: Half life in human liver S9 fraction
Type: ADME, subcellular
Conditions: s9
Log scale reminder: t1/2 in min, then log10 taken.

Use these answered entries as a reference point.
> print(dat)
                           structure.string  quantity.measured  reported.value
1  O=S(=O)(Cc1ccccc1)c1nc(-c2ccccc2)c(-c2ccccc2)[nH]1      log10 of t1/2            1.15
2  Cn1c(SCc2ccccc2)nc(-c2ccccc2)c1-c1ccccc1      log10 of t1/2            1.18
3  CN(Cc1nc(-c2ccccc2)c(-c2ccccc2)n1C)c1ccccc1      log10 of t1/2            2.22

q: So what does the record say about log10 of t1/2 for C#CCn1c([S+](=O)([O-])Cc2ccc(F)cc2)nc(-c2ccccc2)c1-c1ccccc1 ?
a: 1.28

q: So what does the record say about log10 of t1/2 for Cn1c(S(=O)(=O)Nc2ccccc2)nc(-c2ccccc2)c1-c1ccccc1 ?
a: 1.43

----------
Reported values of half-life for individual entries
Assay: Half life in hamster liver S9 fraction
Type: ADME, subcellular
Details: cricetinae

q: So what does the record say about half-life for C#CCn1c([S+](=O)([O-])Cc2ccc(F)cc2)nc(-c2ccccc2)c1-c1ccccc1 ?
a: < 2.5 min

q: So what does the record say about half-life for Cn1c(S(=O)(=O)Cc2ccccc2)nc(-c2ccccc2)c1-c1ccccc1 ?
a: < 2.5 min

q: So what does the record say about half-life for Cn1c(S(=O)(=O)Nc2ccccc2)nc(-c2ccccc2)c1-c1ccccc1 ?
a: < 2.5 min

----------
Test system: Liver
Test: Half life in human liver S9 fraction
Assay type: ADME, subcellular
Settings: s9
Reported values of t1/2 for individual entries

q: So what does the record say about t1/2 for Cn1c(C(=O)Cc2ccccc2)nc(-c2ccccc2)c1-c1ccccc1 ?
a: > 1.5 h

q: So what does the record say about t1/2 for Cn1c(S(=O)(=O)Cc2ccc(F)cc2)nc(-c2ccc(F)cc2)c1-c1ccc(F)cc1 ?
a: < 0.0417 h

q: So what does the record say about t1/2 for Cn1c(S(=O)(=O)C(F)(F)c2ccc(F)cc2)nc(-c2ccc(F)cc2)c1-c1ccc(F)cc1 ?
a: > 1.5 h

----------
Assay: Half life in hamster liver S9 fraction
Format: ADME, subcellular
Conditions: cricetinae
Reported values of half-life for individual entries

> print(dat)
                           structure.string  quantity.measured  reported.value
1  Cn1c(C(=O)Cc2ccccc2)nc(-c2ccccc2)c1-c1ccccc1          half-life           5 min
2  Cn1c(SCc2ccccc2)nc(-c2ccccc2)c1-c1ccccc1          half-life           3 min
3  Cn1c(S(=O)(=O)Cc2ccc(F)cc2)nc(-c2ccc(F)cc2)c1-c1ccc(F)cc1          half-life       < 2.5 min
4  Cn1c(S(=O)(=O)C(F)(F)c2ccc(F)cc2)nc(-c2ccc(F)cc2)c1-c1ccc(F)cc1          half-life          54 min
5  O=S(=O)(Cc1ccccc1)c1nc(-c2ccccc2)c(-c2ccccc2)[nH]1          half-life       < 2.5 min

q: So what does the record say about half-life for CN(Cc1nc(-c2ccccc2)c(-c2ccccc2)n1C)c1ccccc1 ?
a: < 5 min
